The origin of these recorded values is ChEMBL document CHEMBL3885861.

Species on record: Rattus norvegicus
Test: Open TG-GATES - Regimen: Daily Repeat
Format: toxicity, organism-based, Sprague-Dawley
Set-up: regimen Daily Repeat, gender Male, age 6 weeks
Conditions: in vivo, po, 100 mg/kg, […], tissue Kidney, route gavage, dose level Low, time 28 day

COMPOUND: CCOC(=O)CCC(=O)O[C@H]1[C@H](O[C@@H]2[C@@H](C)[C@H](O[C@H]3C[C@@](C)(OC)[C@@H](O)[C@H](C)O3)[C@@H](C)C(=O)O[C@H](CC)[C@@](C)(O)[C@H](O)[C@@H](C)C(=O)[C@H](C)C[C@@]2(C)O)O[C@H](C)C[C@@H]1N(C)C [ERYTHROMYCIN ETHYLSUCCINATE]
UNIT: g
KIDNEY_L: 1.4
--
COMPOUND: COc1ccc2[nH]c([S+]([O-])Cc3ncc(C)c(OC)c3C)nc2c1 (stereo not given) [OMEPRAZOLE]
UNIT: g
KIDNEY_L: 1.4
--
COMPOUND: CCOc1ccc(NC(=O)CC(C)O)cc1 (stereo not given) [BUCETIN]
UNIT: g
KIDNEY_L: 1.4
--
COMPOUND: NC(N)=Nc1nc(CSCCC(N)=NS(N)(=O)=O)cs1 [FAMOTIDINE]
UNIT: g
KIDNEY_L: 1.3
--
COMPOUND: COC1=CC(=O)C[C@@H](C)[C@]12Oc1c(Cl)c(OC)cc(OC)c1C2=O [GRISEOFULVIN]
UNIT: g
KIDNEY_L: 1.4
